- TESTED ON: Nitric oxide synthase 3 (Homo sapiens)
- Sequence (P29474 whole entry): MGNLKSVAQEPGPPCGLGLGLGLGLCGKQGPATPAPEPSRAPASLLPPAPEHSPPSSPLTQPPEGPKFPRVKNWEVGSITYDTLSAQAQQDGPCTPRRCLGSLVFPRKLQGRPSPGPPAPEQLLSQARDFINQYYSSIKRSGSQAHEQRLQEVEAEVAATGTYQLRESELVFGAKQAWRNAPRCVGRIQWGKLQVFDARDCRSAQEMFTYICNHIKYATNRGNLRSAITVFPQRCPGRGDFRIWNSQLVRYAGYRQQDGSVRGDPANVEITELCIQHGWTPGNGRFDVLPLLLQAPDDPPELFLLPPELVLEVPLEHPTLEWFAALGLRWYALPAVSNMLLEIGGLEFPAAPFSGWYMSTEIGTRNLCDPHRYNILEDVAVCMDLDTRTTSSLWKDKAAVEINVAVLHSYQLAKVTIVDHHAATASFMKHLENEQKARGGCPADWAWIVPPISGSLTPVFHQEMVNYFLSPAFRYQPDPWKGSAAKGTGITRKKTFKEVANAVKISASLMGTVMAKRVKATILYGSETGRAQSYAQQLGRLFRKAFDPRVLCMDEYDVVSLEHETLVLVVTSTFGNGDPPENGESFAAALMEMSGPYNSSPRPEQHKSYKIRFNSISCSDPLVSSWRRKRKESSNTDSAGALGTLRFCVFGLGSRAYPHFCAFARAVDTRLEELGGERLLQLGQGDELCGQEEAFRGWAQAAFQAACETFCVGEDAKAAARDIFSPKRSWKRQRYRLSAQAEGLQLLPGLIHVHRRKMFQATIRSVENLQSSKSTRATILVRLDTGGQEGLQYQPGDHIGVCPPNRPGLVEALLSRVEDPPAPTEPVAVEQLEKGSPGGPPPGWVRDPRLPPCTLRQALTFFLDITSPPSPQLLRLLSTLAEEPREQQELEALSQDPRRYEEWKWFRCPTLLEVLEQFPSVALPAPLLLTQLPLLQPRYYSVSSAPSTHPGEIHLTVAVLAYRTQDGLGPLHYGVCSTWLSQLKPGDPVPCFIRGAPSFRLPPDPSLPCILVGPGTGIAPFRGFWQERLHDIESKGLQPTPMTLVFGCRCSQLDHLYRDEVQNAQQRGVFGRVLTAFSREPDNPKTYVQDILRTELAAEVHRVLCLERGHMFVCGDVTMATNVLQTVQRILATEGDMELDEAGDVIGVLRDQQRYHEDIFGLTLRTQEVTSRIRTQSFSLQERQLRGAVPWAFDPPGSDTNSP
Listing of entries alongside the reported log10 Ki.
Short version: log10 scale, Ki, µM.

Record excerpt, results attached:
CSC(=N)Nc1ccc(Cl)cc1
0.41
CCSC(=N)Nc1cccnc1
0.85
CSC(=N)Nc1ccc([N+](=O)[O-])cc1
1.23
CCSC(=N)Nc1ccc(OC(F)(F)F)cc1
1.23
CCSC(=N)Nc1ccc(Cl)cc1
-0.05

Then there is this compound:
Task: Give its log10 Ki value. Item: CSC(=N)Nc1ccc(C(F)(F)F)cc1
Result: 1.49

====

- EXPERIMENTAL DETAILS: Michaelis-Menten constant was determined
- Assay type: ADME
REPORTED PROPERTY: Km (nM)
Provide the reading as a plain figure in nM.

Task: Give its Km value. Item: CCSC(=N)Nc1ccc(C(F)(F)F)cc1.Cl
Result: 2000

Origin of the recorded values: ChEMBL document CHEMBL1130064
